Settings: Ebola virus entry cell assay, ratio channel
Active and inactive are the calls of the source.
API: response.call in 1 = active, -1 = inactive

>  <SMILES_STRUCTURE>
CO[C@@]1(NC(=O)Cc2cccs2)C(=O)N2C(C(=O)O)=C(COC(N)=O)CS[C@@H]21

>  <ASSIGNED_CATEGORY>
-1

$$$$
>  <SMILES_STRUCTURE>
CC(C)(C)NC(=O)[C@@H]1C[C@@H]2CCCC[C@@H]2CN1C[C@@H](O)[C@H](Cc1ccccc1)NC(=O)[C@H](CC(N)=O)NC(=O)c1ccc2ccccc2n1

>  <ASSIGNED_CATEGORY>
-1

$$$$
>  <SMILES_STRUCTURE>
COc1cc([C@@H]2c3cc4c(cc3[C@@H](O[C@@H]3O[C@@H]5CO[C@@H](c6cccs6)O[C@@H]5[C@H](O)[C@@H]3O)[C@H]3COC(=O)[C@H]23)OCO4)cc(OC)c1O

>  <ASSIGNED_CATEGORY>
-1

$$$$

Enquiry: Test call, this compound: `CN1C(=O)OC(C)(C)C1=O`
Return: -1

Enquiry: Test call, this compound: `Cc1noc(NS(=O)(=O)c2ccc(N)cc2)c1C`
Return: -1

Enquiry: Test call, this compound: `C[C@]12C=CC(=O)N[C@@H]1CC[C@@H]1[C@@H]2CC[C@]2(C)[C@@H](C(=O)Nc3cc(C(F)(F)F)ccc3C(F)(F)F)CC[C@@H]12`
Return: -1

Enquiry: Test call, this compound: `COc1cccc2c1C(=O)c1c(O)c3c(c(O)c1C2=O)C[C@@](O)(C(C)=O)C[C@H]3O[C@H]1C[C@H](N)[C@H](O)[C@H](C)O1`
Return: 1

====

System: CP329
Experiment: qHTS profiling for inhibitors of Plasmodium falciparum proliferation (AID 504749);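 note: 0% = DMSO vehicle and full inhibition = artemisinin control; nearly all actives have a fitted effect of over 60% in size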
Conditions: P. falciparum in erythrocytes, SYBR Green DNA, 72 h; series mostly up to 28.7 µM
Records with an inconclusive call do not appear. Calls of active or inactive are those of the source. The call rests on the fitted dose curve; in most records, active means well fitted inhibition curve with a large enough effect; inconclusive means small, poorly fitted or top-dose-only effect; inactive means flat fitted curve, though single readings scatter.
READOUT_LABEL: outcome

Known outcome results, listed for orientation:
>  <COMPOUND>
CCOC(=O)CC(SP(=S)(OC)OC)C(=O)OCC (stereo unspecified)

>  <RESULT>
inactive

$$$$
>  <COMPOUND>
COP(=S)(OC)Oc1ccc(S(=O)(=O)N(C)C)cc1

>  <RESULT>
inactive

$$$$
>  <COMPOUND>
CC(C)NC(C)C

>  <RESULT>
inactive

$$$$
>  <COMPOUND>
CN1C(=O)NC(=O)C(C)(C2=CCCCC2)C1=O (stereo unspecified)

>  <RESULT>
inactive

$$$$

Lab note: CN1C(=O)COc2c(C(=O)NC3CN4CCC3CC4)cc(Cl)cc21 (stereo unspecified) gave outcome of inactive

Lab note: COc1ccc2c(c1)C13CCCC[C@@H]1C(C2)N(C)CC3 (stereo partly specified) gave outcome of inactive

Lab note: `C[C@]12CC[C@@H]3c4ccc(OC(=O)N(CCCl)CCCl)cc4CC[C@H]3[C@@H]1CC[C@@H]2O` gave outcome of inactive

Lab note: `C=CCN1C[C@H](C)N([C@H](c2ccc(C(=O)N(CC)CC)cc2)c2cccc(OC)c2)C[C@H]1C` gave outcome of inactive

Lab note: NC(=O)CS(=O)C(c1ccccc1)c1ccccc1 (stereo unspecified) gave outcome of inactive

Lab note: `O=C(O)CCCc1ccc(N(CCCl)CCCl)cc1` gave outcome of inactive

Lab note: CN1C(=O)C(O)N=C(c2ccccc2)c2cc(Cl)ccc21 (stereo unspecified) gave outcome of inactive

====

Test system: MKL-2
Assay: qHTS assay to identify novel small-molecules to repurpose for Merkel cell carcinoma treatment (AID 1296009); note: % is set by controls: 0 for no effect and ±100 for the full control effect; nearly all actives have a fitted effect of over 60% in size
Details: MCC and control cell lines, CellTiter-Glo viability, 72 h; series mostly up to 46 µM
Inconclusive results are not listed. Active and inactive are the calls of the source. Calls come from the whole dose curve; as a rule, active = well fitted inhibition curve with a large enough effect; inconclusive = small, poorly fitted or top-dose-only effect; inactive = flat fitted curve, though single readings scatter.
API: response.call in active, inactive

Below are worked cases with known answers.
>  <COMPOUND>
CC(Cc1ccccc1)N(C)Cc1ccco1 (configuration not stated)

>  <TARGET_DESC>
MKL-2

>  <ASSIGNED_CATEGORY>
inactive

$$$$
>  <COMPOUND>
COc1cccc([C@@]2(O)CCCC[C@@H]2CN(C)C)c1

>  <TARGET_DESC>
MKL-2

>  <ASSIGNED_CATEGORY>
inactive

$$$$

Next, consider the following compound.
Enquiry: Test call, this compound: O=P1(N(CCCl)CCCl)NCCCO1 (configuration not stated)
Return: inactive

====

Assay: Primary qHTS to identify inhibitors of SARS-CoV-2 cell entry (AID 1645846); note: nearly all actives have a fitted effect of over 45% in size
Settings: SARS-CoV-2 pseudovirus cell entry assay, luminescence; at 57.1 µM (top of the series) unless noted
Records with an inconclusive call do not appear.
Is activity change, negative = inhibition at least -20%? Then rule met. If not, rule not met.

Enquiry: Hello, I need to know if `COc1ccc2cccc(CCNC(C)=O)c2c1` has measured activity change, negative = inhibition not below -20%. Thanks!
Return: rule not met

====

Test system: CP238
Assay: qHTS profiling for inhibitors of Plasmodium falciparum proliferation (AID 504749);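 note: 0% = DMSO vehicle and full inhibition = artemisinin control; nearly all actives have a fitted effect of over 60% in size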
Conditions: P. falciparum in erythrocytes, SYBR Green DNA, 72 h; series mostly up to 28.7 µM
Records with an inconclusive call do not appear. Calls of active or inactive are those of the source. The call rests on the fitted dose curve; in most records, active means well fitted inhibition curve with a large enough effect; inconclusive means small, poorly fitted or top-dose-only effect; inactive means flat fitted curve, though single readings scatter.
READOUT_LABEL: outcome

Known outcome results, listed for orientation:
>  <COMPOUND>
CCC(C)(C)c1ccc(O)cc1

>  <TARGET_DESC>
CP238

>  <RESULT>
inactive

$$$$
>  <COMPOUND>
Oc1ccc(Cl)cc1

>  <TARGET_DESC>
CP238

>  <RESULT>
inactive

$$$$
>  <COMPOUND>
O=C1Nc2ccc(Cl)cc2C(c2ccccc2Cl)=NC1O (stereo unspecified)

>  <TARGET_DESC>
CP238

>  <RESULT>
inactive

$$$$
>  <COMPOUND>
CCCCCCCCCC(=O)O[C@H]1CC[C@H]2[C@@H]3CCC4=CC(=O)CC[C@@H]4[C@H]3CC[C@]12C

>  <TARGET_DESC>
CP238

>  <RESULT>
inactive

$$$$
>  <COMPOUND>
NC(=O)c1cc([N+](=O)[O-])cc([N+](=O)[O-])c1

>  <TARGET_DESC>
CP238

>  <RESULT>
inactive

$$$$

Lab note: `C=CCN1C[C@H](C)N([C@H](c2ccc(C(=O)N(CC)CC)cc2)c2cccc(OC)c2)C[C@H]1C` gave outcome of inactive

====

Settings: Ebola virus entry assay, green fluorescence channel
Entries with a potency or affinity are not part of this list.
READOUT_LABEL: efficacy (%)
Give a bare numeral; the unit % is implied.

Known efficacy results, listed for orientation:
>  <MOLECULE>
O=C1[C@@H]2[C@H]3CC[C@H](C3)[C@@H]2C(=O)N1CCCCN1CCN(c2ncccn2)CC1

>  <UNIT_SYMBOL>
%

>  <efficacy>
-13.3

$$$$
>  <MOLECULE>
CN(C)[C@@H]1C(=O)C(C(N)=O)=C(O)[C@@]2(O)C(=O)C3=C(O)c4c(O)cccc4C[C@H]3C[C@@H]12

>  <UNIT_SYMBOL>
%

>  <efficacy>
167

$$$$
>  <MOLECULE>
NCCCNCCSP(=O)(O)O

>  <UNIT_SYMBOL>
%

>  <efficacy>
18

$$$$
>  <MOLECULE>
COc1cc2nc(Cl)nc(N)c2cc1OC

>  <UNIT_SYMBOL>
%

>  <efficacy>
-33.8

$$$$
>  <MOLECULE>
C[C@H]1[C@@H]2Cc3ccc(O)cc3[C@@]1(C)CCN2C

>  <UNIT_SYMBOL>
%

>  <efficacy>
67.4

$$$$
>  <MOLECULE>
CCN(CC)CCNC(=O)COc1ccc(OC)cc1

>  <UNIT_SYMBOL>
%

>  <efficacy>
11.4

$$$$

Read the next record carefully.
Lab note: CCCOc1ccc2c(c1)CC[C@@H]1[C@@H]2CC[C@]2(C)C(OC)CC[C@@H]12 (stereo not given in full) gave efficacy of -11.2

====

Test: Cellular Toxicity (caspase-3) SHSY5Y (AID 657);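 note: cells exposed to compound for 16 hours at 37 °C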
Conditions: SH-SY5Y caspase-3 activation, DMSO zero, 10 µM staurosporine = 100%; series mostly up to 91.7 µM
Calls of active or inactive are those of the source. Calls follow the shape of the dose curve; as a rule, active = well fitted activation curve with a large enough effect; inconclusive = small, poorly fitted or top-dose-only effect; inactive = flat fitted curve, though single readings scatter.
READOUT_LABEL: outcome

Known outcome results, listed for orientation:
>  <MOLECULE>
COP(=S)(OC)Oc1ccc(SC)c(C)c1

>  <outcome>
inactive

$$$$
>  <MOLECULE>
Clc1ccc(C(c2ccc(Cl)cc2)C(Cl)(Cl)Cl)cc1

>  <outcome>
inactive

$$$$
>  <MOLECULE>
CCCC(C)(COC(N)=O)COC(N)=O

>  <outcome>
inactive

$$$$
>  <MOLECULE>
C[C@]12CCC(=O)C=C1CC[C@@H]1[C@@H]2CC[C@@]2(C)[C@H]1CC[C@]2(C)O

>  <outcome>
inactive

$$$$
>  <MOLECULE>
CCOC(=O)CC(SP(=S)(OC)OC)C(=O)OCC (stereo not given)

>  <outcome>
inactive

$$$$
>  <MOLECULE>
CC(C)c1cccc(C(C)C)c1O

>  <outcome>
inactive

$$$$
>  <MOLECULE>
NCCc1ccc(O)cc1

>  <outcome>
inactive

$$$$
>  <MOLECULE>
C[C@]1(O)CC[C@H]2[C@@H]3CCC4=CC(=O)CC[C@]4(C)[C@@]3(F)[C@@H](O)C[C@@]21C

>  <outcome>
inactive

$$$$
>  <MOLECULE>
C[C@]12CCC(=O)C=C1CC[C@@H]1[C@@H]2CC[C@]2(C)C(=O)CC[C@@H]12

>  <outcome>
inactive

$$$$

Lab note: `CC(C)NC(C)C` gave outcome of inactive
